Molecular target: EGFR (human) (UniProt P00533)
Sequence (P00533 whole entry, looked up): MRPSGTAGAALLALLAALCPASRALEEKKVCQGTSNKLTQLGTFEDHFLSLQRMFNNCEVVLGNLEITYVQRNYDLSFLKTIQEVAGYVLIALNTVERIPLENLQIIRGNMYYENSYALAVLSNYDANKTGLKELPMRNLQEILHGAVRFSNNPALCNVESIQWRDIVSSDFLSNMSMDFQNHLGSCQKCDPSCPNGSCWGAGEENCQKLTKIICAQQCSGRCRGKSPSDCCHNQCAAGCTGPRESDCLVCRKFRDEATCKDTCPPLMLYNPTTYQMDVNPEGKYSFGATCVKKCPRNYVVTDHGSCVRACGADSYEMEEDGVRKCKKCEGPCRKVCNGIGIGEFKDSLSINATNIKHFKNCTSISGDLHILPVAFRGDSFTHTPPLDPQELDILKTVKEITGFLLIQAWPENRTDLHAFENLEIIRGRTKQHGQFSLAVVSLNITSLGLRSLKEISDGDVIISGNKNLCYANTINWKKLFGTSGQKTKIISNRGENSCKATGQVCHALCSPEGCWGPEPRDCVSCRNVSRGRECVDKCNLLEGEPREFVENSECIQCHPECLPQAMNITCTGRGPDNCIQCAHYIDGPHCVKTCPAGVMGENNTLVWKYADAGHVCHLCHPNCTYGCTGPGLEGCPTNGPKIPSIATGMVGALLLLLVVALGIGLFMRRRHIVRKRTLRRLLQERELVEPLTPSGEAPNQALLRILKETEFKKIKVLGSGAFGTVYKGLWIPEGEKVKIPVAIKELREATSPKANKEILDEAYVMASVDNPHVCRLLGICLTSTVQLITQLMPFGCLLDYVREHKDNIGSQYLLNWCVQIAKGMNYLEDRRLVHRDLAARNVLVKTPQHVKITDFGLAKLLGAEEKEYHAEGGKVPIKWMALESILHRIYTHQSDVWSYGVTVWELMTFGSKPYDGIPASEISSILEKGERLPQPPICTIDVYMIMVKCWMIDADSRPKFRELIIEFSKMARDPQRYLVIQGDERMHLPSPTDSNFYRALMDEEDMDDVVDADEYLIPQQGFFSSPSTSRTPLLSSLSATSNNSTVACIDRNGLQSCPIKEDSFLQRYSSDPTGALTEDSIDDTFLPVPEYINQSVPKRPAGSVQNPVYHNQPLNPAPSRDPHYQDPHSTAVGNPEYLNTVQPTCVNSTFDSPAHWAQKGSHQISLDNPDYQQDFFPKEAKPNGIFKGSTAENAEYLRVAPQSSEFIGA
Conditions: sf-539
IC50 strictly less than 10 µM = yes (1). Otherwise no (0).

Consider the worked cases shown below.
# compound, class_label
records = [
    ("O=C(NCCCc1ccccc1)c1ccc(NCc2cc(O)ccc2O)cc1", "yes (1)"),
    ("O=C(NC1CCc2ccccc2C1)c1cc(NCc2cc(O)ccc2O)ccc1O (stereo not given)", "yes (1)"),
    ("O=C(NCc1ccccc1)c1ccc(NCc2cc(O)ccc2O)cc1", "yes (1)"),
    ("O=C(NCCc1ccccc1)c1cc(NCc2cc(O)ccc2O)ccc1O", "no (0)"),
]

Now look at this one.
Lab log: compare recorded IC50 with 10 µM; is it strictly lower for COc1ccc(CCNC(=O)c2cc(NCc3cc(O)ccc3O)ccc2O)cc1 ?
no (0)
